System: RSV A2 strain
Assay: In vitro CPE (CytoPathic Effect) inhibition effect evaluation test, RSV type A
Format: cell-based
Details: human respiratory syncytial virus; inhibitory effect against RSV type A (RSV A2 strain), HEp-2 cells, CPE inhibition; read-out: EC50
# EC50 listing for each entry below

# annotated cases, reported EC50 shown
Cn1nc(-c2ccc(C(=O)NC3(C(=O)O)C4CC5CC(C4)CC3C5)c(C(F)(F)F)n2)c2ccc(OCCC3CCOCC3)cc21 (stereo not drawn); < 10 nM
O=C(NC1(C(=O)O)C2CC3CC(C2)CC1C3)c1cnc(-c2cn(C3CCC(F)(F)CC3)c3cc(OC4CCN(S(=O)(=O)C5CC5)CC4)ccc23)nc1C(F)(F)F (stereo not drawn); < 10 nM

As a next step, examine the molecule that follows.
Specify EC50 for CC1(C)CN(c2ncc(C(=O)NC3(C(=O)O)CCCCC3)c(C(F)(F)F)n2)c2ccc(OCCC3CCOCC3)cc21 and stop. < 10 nM

----------
# pEC50 listing for each entry below
System: RSV A2 strain
Assay: In vitro CPE (CytoPathic Effect) inhibition effect evaluation test, RSV type A
Format: cell-based
Conditions: human respiratory syncytial virus; inhibitory effect against RSV type A (RSV A2 strain), HEp-2 cells, CPE inhibition; read-out: EC50
pEC50: −log10 of the molar value.

# annotated cases, reported pEC50 shown
CC(F)(F)c1nc(N2CC3(CCCC3)c3cc(OC4CCN(CC(F)(F)F)CC4)ccc32)ncc1C(=O)NC1(C(=O)O)C2CC3CC(C2)CC1C3 (stereo not drawn); > 8.00
N#CCCCCOc1ccc2c(c1)CCN2c1ncc(C(=O)NC2(C(=O)O)CCCCC2)c(C(F)(F)F)n1; 7.00 to 8.00

As a next step, examine the compound that follows.
Please report pEC50 with RSV A2 strain for item CC(F)(F)c1nc(N2CC3(CC3)c3cc(OC4CCN(c5ncc(F)cn5)CC4)ccc32)ncc1C(=O)NC1(C(=O)O)C2CC3CC(C2)CC1C3 (stereo not drawn) . > 8.00

----------
Tested on: RSV A2 strain
Experiment: In vitro CPE (CytoPathic Effect) inhibition effect evaluation test, RSV type A
Assay type: cell-based
Conditions: human respiratory syncytial virus; inhibitory effect against RSV type A (RSV A2 strain), HEp-2 cells, CPE inhibition; read-out: EC50
pEC50: −log10 of the molar value.
# pEC50 listing for each entry below

CC(F)(F)c1nc(N2CC3(CCOCC3)c3cc(O[C@H]4CC[C@H](N5CC(F)(F)C5)CC4)ccc32)ncc1C(=O)NC1(C(=O)O)C2CC3CC(C2)CC1C3 (some centres unmarked); > 8.00
COc1ccc2c(-c3ncc(C(=O)NC4(C(=O)O)C5CC6CC(C5)CC4C6)c(C(F)(F)F)n3)cn(C3CCC(F)(F)CC3)c2c1 (centres unmarked); 7.00 to 8.00
O=C(NC1(C(=O)O)CCCCC1)c1cnc(N2CCc3cc(OC4CCN(c5nccs5)CC4)ccc32)nc1C(F)(F)F; > 8.00
O=C(NC1(C(=O)O)C2CC3CC(C2)CC1C3)c1cnc(N2CC3(C=CCC3)c3cc(OC4CCN(c5ncccn5)CC4)ccc32)nc1C(F)(F)F (racemic); > 8.00
CC1CC(Oc2ccc3c(-c4ncc(C(=O)NC5(C(=O)O)C6CC7CC(C6)CC5C7)c(C(F)(F)F)n4)cn(C4CCC(F)(F)CC4)c3c2)CCN1c1ncc(F)cn1 (single isomer, unassigned); > 8.00

Specify pEC50 for O=C(NC1(C(=O)O)C2CC3CC(C2)CC1C3)c1cnc(N2CC3(CCCCC3)c3cc(O[C@H]4CC[C@H](N5CC(F)(F)C5)CC4)ncc32)nc1C(F)(F)F (some centres unmarked) and stop. > 8.00

Specify pEC50 for O=C(NC1(C(=O)O)C2CC3CC(C2)CC1C3)c1cnc(-c2cn(C3CCC(F)(F)CC3)c3cc(OC4CCN(C5COC5)CC4)ccc23)nc1C(F)(F)F (centres unmarked) and stop. > 8.00

Specify pEC50 for O=C(NC1(C(=O)O)C2CC3CC(C2)CC1C3)c1ccc(-c2cn(CC(=O)N3CCOCC3)c3cc(OC4CCN(c5ncccn5)CC4)ccc23)nc1C(F)(F)F (centres unmarked) and stop. > 8.00

Specify pEC50 for O=C(NC1(C(=O)O)C2CC3CC(C2)CC1C3)c1ccc(-c2cn(C3CS(=O)(=O)C3)c3cc(OC4CCN(c5ncccn5)CC4)ccc23)nc1C(F)(F)F (centres unmarked) and stop. > 8.00

Specify pEC50 for O=C(NC1(C(=O)O)CCC1)c1cnc(N2CCc3cc(OC4CCN(c5ncccn5)CC4)ccc32)nc1C(F)(F)F and stop. 7.00 to 8.00

Specify pEC50 for O=C(NC1(C(=O)O)C2CC3CC(C2)CC1C3)c1ccc(-c2cn(C3CCC(F)(F)CC3)c3cc(OC4CCN(C5COC5)CC4)ccc23)nc1C(F)(F)F (centres unmarked) and stop. > 8.00
